- Tested on: CCRF-CEM
- Method notes: NCI tumour cell line growth inhibition, 48 h
The source made the active and inactive calls. Cut-off read from the data, not from the text of the source: active = GI50 up to about 1.1 µM and inactive = higher.
Outcomes: active, inactive

> print(dat)
                                    compound  assay.target  class.label
 1    Cc1cc(Cl)ccc1NC(=O)/C(Cl)=C(/Cl)C(=O)O      CCRF-CEM     inactive
 2  O=[N+]([O-])c1ccc(Nc2cccc3c4cc[nH]c(-c5ccccc5)c-4nc23)c([N+](=O)[O-])c1      CCRF-CEM     inactive
 3  CCCCCC(/C=N/Nc1ccccc1)C(O)(C(F)(F)F)C(F)(F)F (stereo not given)      CCRF-CEM     inactive
 4  CCOC(=O)CCC(=O)C1c2cccc(O)c2C(=O)c2c(O)cc(C)cc21 (stereo not given)      CCRF-CEM       active
 5    COc1ccc(-c2nc3ccccc3c(=S)n2OC(C)=O)cc1      CCRF-CEM     inactive
 6  CC1=NN(C(=O)c2ccc(Cl)cc2)C(=O)/C1=C/c1cccc([N+](=O)[O-])c1      CCRF-CEM     inactive
 7               CCNCCCNc1c2ccccc2nc2ccccc12      CCRF-CEM       active
 8            COc1cccc(-c2nc(O)c3ccccc3n2)c1      CCRF-CEM     inactive
 9  COc1ccc2[nH]c3c([N+](=O)[O-])ccc(NCCCN(C)C)c3/c(=N/CCCN(C)C)c2c1      CCRF-CEM       active
10       Cc1ccc(Oc2ccc(C)cc2[N+](=O)[O-])cc1      CCRF-CEM     inactive

Origin of values: ChEMBL document CHEMBL1201862
